- protocolNotes: Metabolic stability in human hepatic microsome
- Type: in vitro ADME
- testParameters: microsomes, pH 7.4; human hepatic microsome, NADPH(+); read-out: CL NADPH(+)
Starred links: 1 amine or outer side, 2 acyl side, 3 side chain; linkers in the order of their positions; H or OH if unused. Positions of bridges follow the written chain, without caps; N, C: chain ends. Non-standard residues stand in square brackets, D forms with d. Residues, ends and D or L forms follow the SMILES beside them. *: point of attachment. Ala(1H-tetrazol-5-yl) = N[C@@H](Cc1nnn[nH]1)C(=O)O; NMeF = CN[C@@H](Cc1ccccc1)C(=O)O; NMeβAla = CN(CCC(=O)[*:2])[*:1]; NMeL = CN[C@@H](CC(C)C)C(=O)O; NMeV = CN[C@H](C(=O)O)C(C)C; NMeA = CN[C@@H](C)C(=O)O; Piperidide = C1CCN(*)CC1; Sar = CNCC(=O)O
So basically: microsomal CLint at 1 uM at 80 µL/min/mg or higher? That is class 1. Lower than 80 µL/min/mg? That is class 0.

molecule	assignedClass
CC(C)C[C@H]1C(=O)N[C@@H]([C@@H](C)O)C(=O)N(C)[C@@H](C)C(=O)N(C)[C@@H](CC(C)C)C(=O)N[C@@H](C(C)C)C(=O)N[C@H](C(=O)N(C)[C@@H](Cc2ccccc2)C(=O)N(C)[C@@H](Cc2ccccc2)C(=O)N[C@@H](C)C(=O)N2CCCCC2)CC(=O)N(C)[C@@H](C)C(=O)N(C)[C@@H](Cc2ccccc2)C(=O)N(C)CC(=O)N1C [DP-405] ([NMeA][NMeF][Sar][NMeL]T[NMeA][NMeL]VD[NMeF][NMeF]A-Piperidide; lactam N-9)	class 1
CC[C@H](C)[C@@H]1NC(=O)[C@H](C)NC(=O)C[C@@H](C(=O)N(C)[C@@H](Cc2ccccc2)C(=O)N[C@@H](C)C(=O)N2CCCCC2)NC(=O)[C@H](Cc2ccccc2)NC(=O)[C@H](C)N(C)C(=O)[C@H](C(C)C)N(C)C(=O)CN(C)C(=O)[C@H]([C@@H](C)O)NC(=O)[C@H](Cc2ccccc2)N(C)C(=O)[C@H](CC(C)C)N(C)C(=O)[C@H](CC(C)C)N(C)C1=O [DP-483] (AI[NMeL][NMeL][NMeF]T[Sar][NMeV][NMeA]FD[NMeF]A-Piperidide; lactam N-11)	class 0
CC[C@H](C)[C@@H]1NC(=O)CCN(C)C(=O)C[C@@H](C(=O)N2CCCCC2)NC(=O)[C@H](Cc2ccccc2)N(C)C(=O)[C@H](CC(C)C)N(C)C(=O)[C@H](C)N(C)C(=O)[C@H](Cc2ccccc2)N(C)C(=O)[C@H]([C@@H](C)O)NC(=O)[C@H](CC(C)C)N(C)C(=O)[C@H](C)N(C)C(=O)[C@H](CC(C)C)N(C)C1=O [DP-159] ([NMeβAla]I[NMeL][NMeA][NMeL]T[NMeF][NMeA][NMeL][NMeF]D-Piperidide; lactam N-11)	class 0
CC[C@H](C)[C@@H]1NC(=O)[C@H](Cc2ccccc2)NC(=O)[C@H]([C@@H](C)O)NC(=O)[C@H](CC(C)C)NC(=O)CCN(C)C(=O)C[C@@H](C(=O)N2CCCCC2)NC(=O)[C@H](CC(C)C)NC(=O)[C@H](Cc2ccccc2)N(C)C(=O)[C@H](Cc2ccccc2)NC(=O)[C@H](CC(C)C)NC1=O [DP-424] ([NMeβAla]LTFILF[NMeF]LD-Piperidide; lactam N-10)	class 1

From here, focus on the item given below.
[ask] Is microsomal CLint at 1 uM for CC(C)C[C@H]1NC(=O)[C@H](Cc2ccccc2)N(C)C(=O)[C@H](CC(C)C)N(C)C(=O)[C@H](C)NC(=O)[C@H](CC(C)C)N(C)C(=O)[C@H](Cc2ccccc2)N(C)C(=O)[C@H](Cc2nn[nH]n2)NC(=O)C[C@@H](C(=O)N2CCCCC2)NC(=O)[C@H](CC(C)C)N(C)C(=O)[C@H](CC(C)C)N(C)C1=O [DP-909] ([Ala(1H-tetrazol-5-yl)][NMeF][NMeL]A[NMeL][NMeF][dL][NMeL][NMeL]D-Piperidide; lactam N-10) at or above 80 µL/min/mg?
[reply] class 0

----------
- protocolNotes: Metabolic stability in human hepatic microsome
- Type: in vitro ADME
- testParameters: human, microsomes, pH 7.4, Hepatic Microsome CLhint Human
Positions of bridges follow the written chain, without caps; N, C: chain ends. Non-standard residues stand in square brackets, D forms with d. Residues, ends and D or L forms follow the SMILES beside them. ξ: configuration not given here. *: point of attachment. NMeF = CN[C@@H](Cc1ccccc1)C(=O)O; NMeI = CC[C@H](C)[C@H](NC)C(=O)O; NMeL = CN[C@@H](CC(C)C)C(=O)O; NMeA = CN[C@@H](C)C(=O)O; Piperidide = C1CCN(*)CC1; ξC = NC(CS)C(=O)O; Sar = CNCC(=O)O; tBu = CC(C)(C)*
observationType: microsomal CLint at 1 uM (µL/min/mg)
State the answer as a number, implicitly in µL/min/mg.

[ask] Look up microsomal CLint at 1 uM: CC[C@H](C)[C@H]1C(=O)NC(C(=O)N2CCCCC2)CSCC(=O)N(C)[C@@H](Cc2ccccc2)C(=O)N(C)[C@@H](C)C(=O)N(C)[C@@H](Cc2ccccc2)C(=O)N(C)[C@@H](CC(C)C)C(=O)N[C@@H]([C@@H](C)O)C(=O)N(C)CC(=O)N(C)[C@@H](CC(C)C)C(=O)N[C@@H](COC(C)(C)C)C(=O)N1C (stereo partly shown) [Compound P-112] ({CH2CO}-[NMeF][NMeA][NMeF][NMeL]T[Sar][NMeL]S(tBu)[NMeI][ξC]-Piperidide; thioether N-10)
[reply] 118

----------
The following molecules are listed with their measured microsomal CLint at 1 uM values.
- protocolNotes: Metabolic stability in human hepatic microsome
- Assay type: in vitro ADME
- testParameters: microsomes, pH 7.4; human hepatic microsome, NADPH(+); read-out: CL NADPH(+)
Positions of bridges follow the written chain, without caps; N, C: chain ends. Non-standard residues stand in square brackets, D forms with d. Residues, ends and D or L forms follow the SMILES beside them. *: point of attachment. NMeF = CN[C@@H](Cc1ccccc1)C(=O)O; AllylGly = C=CC[C@H](N)C(=O)O; NMeL = CN[C@@H](CC(C)C)C(=O)O; NMeS = CN[C@@H](CO)C(=O)O; NMeA = CN[C@@H](C)C(=O)O; Piperidide = C1CCN(*)CC1; β3hA = C[C@H](N)CC(=O)O; Sar = CNCC(=O)O
State the answer as a number, implicitly in µL/min/mg.

Check out these entries, answers already filled in.
molecule	unit	microsomal CLint at 1 uM
CC(C)C[C@@H]1NC(=O)[C@H](C)NC(=O)C[C@@H](C(=O)N(C)[C@@H](C)C(=O)N[C@H](C(=O)N(C)[C@@H](Cc2ccccc2)C(=O)N(C)[C@@H](CC(C)C)C(=O)N[C@@H](C)C(=O)N2CCCCC2)[C@@H](C)O)NC(=O)[C@H](Cc2ccccc2)N(C)C(=O)[C@H](CC(C)C)N(C)C(=O)[C@H](C)NC(=O)[C@H](Cc2ccccc2)N(C)C(=O)[C@H](CC(C)C)N(C)C1=O [DP-574] (AL[NMeL][NMeF]A[NMeL][NMeF]D[NMeA]T[NMeF][NMeL]A-Piperidide; lactam N-8)	µL/min/mg	113
C=CC[C@@H]1NC(=O)[C@H](CC(C)C)N(C)C(=O)[C@H](CC(C)C)N(C)C(=O)CNC(=O)[C@H](Cc2ccccc2)N(C)C(=O)[C@H]([C@@H](C)O)NC(=O)[C@H](CC(C)C)N(C)C(=O)[C@H](Cc2ccccc2)NC(=O)[C@H](C)NC(=O)C[C@@H](C(=O)N(C)[C@@H](Cc2ccccc2)C(=O)N[C@@H](C)C(=O)N2CCCCC2)NC1=O [DP-611] (AF[NMeL]T[NMeF]G[NMeL][NMeL][AllylGly]D[NMeF]A-Piperidide; lactam N-10)	µL/min/mg	20
CC[C@H](C)[C@@H]1NC(=O)[C@H](Cc2ccccc2)N(C)C(=O)[C@H](CC(C)C)N(C)C(=O)[C@H](Cc2ccccc2)NC(=O)[C@H](C)N(C)C(=O)[C@H]([C@@H](C)O)NC(=O)[C@H](C(C)C)NC(=O)[C@@H](C(C)C)NC(=O)C[C@@H](C(=O)N(C)[C@@H](Cc2ccccc2)C(=O)N[C@H](C(=O)N(C)[C@@H](C)C(=O)N(C)[C@@H](CC(C)C)C(=O)N[C@H](C(=O)N2CCCCC2)[C@@H](C)CC)C(C)C)NC1=O [DP-935] ([dV]VT[NMeA]F[NMeL][NMeF]ID[NMeF]V[NMeA][NMeL]I-Piperidide; lactam N-9)	µL/min/mg	29
CC(C)C[C@@H]1NC(=O)[C@H](CO)N(C)C(=O)[C@H](CC(C)C)N(C)C(=O)[C@H](CC(C)C)N(C)C(=O)[C@H](CC(C)C)N(C)C(=O)C[C@H](C)NC(=O)[C@H](C)NC(=O)[C@H](CC(C)C)N(C)C(=O)[C@H](CC(C)C)NC(=O)[C@H](CC(C)C)N(C)C(=O)CN(C)C1=O [DP-644] (cyclo(A[β3hA][NMeL][NMeL][NMeL][NMeS]L[Sar][NMeL]L[NMeL]))	µL/min/mg	80
CC[C@H](C)[C@H](NC(=O)[C@H](CC(C)C)N(C)C(=O)[C@H](Cc1ccccc1)N(C)C(=O)[C@@H]1CC(=O)N(C)[C@@H](C)C(=O)N[C@@H](C(C)C)C(=O)N[C@@H](C)C(=O)N[C@@H](CC(C)C)C(=O)N(C)[C@@H](Cc2ccccc2)C(=O)N[C@@H](CC(C)C)C(=O)N[C@@H]([C@@H](C)O)C(=O)N1)C(=O)N1CCCCC1 [DP-932] ([NMeA]VAL[NMeF]LTD[NMeF][NMeL]I-Piperidide; lactam N-8)	µL/min/mg	108

Now take the following molecule into account.
[ask] Look up microsomal CLint at 1 uM: CC(C)C[C@H]1C(=O)N[C@H](C(=O)N(C)[C@@H](Cc2ccccc2)C(=O)N[C@@H](C)C(=O)N2CCCCC2)CC(=O)N[C@H](C)C(=O)N(C)[C@@H](Cc2ccccc2)C(=O)N(C)[C@@H](CC(C)C)C(=O)N[C@@H]([C@@H](C)O)C(=O)N(C)[C@@H](C)C(=O)N(C)[C@@H](CC(C)C)C(=O)N[C@@H](C(C)C)C(=O)N1C [DP-197] ([dA][NMeF][NMeL]T[NMeA][NMeL]V[NMeL]D[NMeF]A-Piperidide; lactam N-9)
[reply] 48
